Hey, just so you know, these numbers are from ChEMBL document CHEMBL2406948.

Tested on: Oryza sativa
Experiment: Inhibition of rice alpha-glucosidase at 1000 uM
inhibition for assorted compounds
Measurement name: inhibition (%)

INSERT INTO results (mol, target_desc, scale_unit, measured_number) VALUES
  ('CC[C@H]1NC[C@@H](O)[C@@H](O)[C@H](O)[C@H]1O', 'Oryza sativa', '%', 1),
  ('CC[C@@H]1N[C@H](CC)[C@H](O)[C@@H](O)[C@@H]1O', 'Oryza sativa', '%', 1.7),
  ('CC[C@@H]1NC[C@@H](O)[C@@H](O)[C@H](O)[C@H]1O', 'Oryza sativa', '%', 0),
  ('CCC[C@@H]1N[C@@H](CO)[C@@H](O)[C@H](O)[C@H]1O', 'Oryza sativa', '%', 0),
  ('CC[C@H]1N[C@@H](CO)[C@@H](O)[C@H](O)[C@H]1O', 'Oryza sativa', '%', 0),
  ('CC[C@@H]1N[C@@H](CO)[C@@H](O)[C@H](O)[C@H]1O', 'Oryza sativa', '%', 0);
